Measured pEC50 by item
System: W2
Assay: Cross-resistance EC50 assay, W2 parent
Type: cell-based, Plasmodium falciparum
Conditions: Plasmodium falciparum, 48 h, read-out: W2F6 (PARENT) Average EC50
pEC50: −log10 of the molar value.
measurement_kind: pEC50

{"columns": ["compound", "study_target", "measurement_kind", "endpoint_value"],
 "data": [
  ["Cl.c1ccc2c(NCCCCCCNc3c4c(nc5ccccc35)CCCC4)c3c(nc2c1)CCCC3", "W2", "pEC50", 6.31],
  ["Brc1ccc(Nc2nc3ccccc3nc2Nc2ccc(Br)cc2)cc1", "W2", "pEC50", 6.54],
  ["CCCN(CCC)CC(O)COc1ccccc1C(=O)Nc1ccccc1 (stereo not shown)", "W2", "pEC50", 6.97],
  ["COc1ccc(-c2nc(NC(=O)Cc3ccc4c(c3)OCCO4)sc2C)cc1", "W2", "pEC50", 6.84],
  ["Cc1ccc(Cn2c(N3CCC(C(=O)NCc4cccs4)CC3)nc3ccccc32)cc1", "W2", "pEC50", 6.30],
  ["Cc1ccc(S(=O)(=O)n2cc(-c3ccnc(N)c3)c3cc(Br)cnc32)cc1", "W2", "pEC50", 5.98],
  ["FC(F)(F)c1cccc(Nc2nc3ccccc3nc2Nc2cccc(C(F)(F)F)c2)c1", "W2", "pEC50", 6.74],
  ["CNCc1ccc2nc(-c3coc(Cc4cc(Cl)ccc4OCC(C)C)n3)[nH]c2c1.Cl.Cl", "W2", "pEC50", 6.19],
  ["Nc1ncc(-c2cn[nH]c2)cc1-c1nc2ccc(F)cc2[nH]1", "W2", "pEC50", 6.61],
  ["COc1cc(C(=O)ON=C(N)Cc2cccc3ccccc23)cc(OC)c1OC", "W2", "pEC50", 6.33],
  ["COCCNCC(O)Cn1c2ccc(Cl)cc2c2cc(Cl)ccc21 (stereo not shown)", "W2", "pEC50", 6.86],
  ["CN1CCN(c2ccc(Nc3c4ccccc4nc4ccccc34)cc2)CC1", "W2", "pEC50", 6.64],
  ["CCCOCc1cc(CN2CCN(c3cccc(Cl)c3)CC2)c(O)c2ncccc12", "W2", "pEC50", 6.10],
  ["Cc1nc2ccc3ccc(CNc4ccc(C(=O)CC(CCC(=O)O)C(=O)O)cc4)cc3c2c(=O)[nH]1.Cl (stereo not shown)", "W2", "pEC50", 7.21],
  ["O=C(Nc1ccsc1C(=O)NC1CCCCC1)c1ccc(F)cc1", "W2", "pEC50", 5.01],
  ["CN(C)Cc1ccc(-c2cc3c(-c4ccc(CN(C)C)cc4)ccnc3[nH]2)cc1.O=C(O)C(F)(F)F", "W2", "pEC50", 6.39],
  ["CC(C)c1cccc(C(NC(=O)C2Cc3ccccc3CN2C(=O)c2cccc(N3CCOCC3)c2)C2CCCC2)c1 (stereo not shown)", "W2", "pEC50", 6.31],
  ["c1cc(-c2cnc3ccc(-c4ccc(N5CCOCC5)cc4)nn23)ccn1", "W2", "pEC50", 7.54],
  ["CCN(CC)S(=O)(=O)c1ccc(-c2csc(Nc3ccc(C)c(C)c3)n2)cc1", "W2", "pEC50", 6.42],
  ["OC(CNC1CCCCC1)Cn1c2ccc(I)cc2c2cc(I)ccc21 (stereo not shown)", "W2", "pEC50", 7.59],
  ["COc1cc(-c2nc(-c3ccccc3)c(-c3ccccc3)[nH]2)ccc1OCCN(C)C", "W2", "pEC50", 6.57],
  ["COc1cc(-c2nc(-c3ccccc3)c(-c3ccccc3)[nH]2)cc(OC)c1O", "W2", "pEC50", 5.73]
]}

====

Measured EC50 by item
Test system: Dd2
Test: Cross-resistance EC50 assay, Dd2 parent
Format: cell-based, Plasmodium falciparum
Details: Plasmodium falciparum, DD2, 72 h, read-out: Dd2 (PARENT) EC50 (µM) Average EC50

{"columns": ["molecule", "EC50"],
 "data": [
  ["COc1ccccc1CNC(=O)CCn1c(=O)[nH]c2ccsc2c1=O", "0.00951 µM"],
  ["c1cncc(-c2cc(N3CCC(CN4CCOCC4)CC3)nc(-c3ccncc3)n2)c1", "0.984 µM"],
  ["OC(CNC1CCCCC1)Cn1c2ccccc2c2ccccc21 (stereo not shown)", "0.364 µM"],
  ["O=C(Nc1ccc(Cl)c(Cl)c1)Nc1ccc(Cl)c(Cl)c1", "1.8 µM"],
  ["Nc1ncc(-c2cn[nH]c2)cc1-c1nc2ccc(F)cc2[nH]1", "1.96 µM"],
  ["COc1cc(C(=O)ON=C(N)Cc2cccc3ccccc23)cc(OC)c1OC", "0.87 µM"],
  ["CN(C)Cc1ccc(-c2cc3c(-c4ccc(CN(C)C)cc4)ccnc3[nH]2)cc1.O=C(O)C(F)(F)F", "0.302 µM"],
  ["O=C(Nc1ccsc1C(=O)NC1CCCCC1)c1ccc(F)cc1", "2.06 µM"],
  ["CCCCCCCN(Cc1ccc(OC(C)(C)C(=O)OCC)cc1)C(=O)Nc1ccc(Cl)cc1OCC", "1.29 µM"],
  ["CC(C)(C)OC(=O)N1CCN(c2ccccc2NC(=O)c2cccc(C(F)(F)F)c2Oc2ccc(F)cc2)CC1", "0.255 µM"],
  ["O=C(Nc1ccccc1O)c1ccc(Oc2cccc(C(=O)Nc3ccccc3O)c2)cc1", "0.66 µM"],
  ["CC(NCc1ccccc1)c1cc(Cl)ccc1O (stereo not shown)", "0.333 µM"],
  ["CCCN(CCC)CC(O)COc1ccccc1C(=O)Nc1ccccc1 (stereo not shown)", "0.408 µM"],
  ["Cc1ccc(S(=O)(=O)n2cc(-c3ccnc(N)c3)c3cc(Br)cnc32)cc1", "1.64 µM"],
  ["COc1ccc(-c2nc(NC(=O)Cc3ccc4c(c3)OCCO4)sc2C)cc1", "0.277 µM"],
  ["OC(CNC1CCCCC1)Cn1c2ccc(I)cc2c2cc(I)ccc21 (stereo not shown)", "0.038 µM"],
  ["Nc1ccc(-c2nc3cc(Oc4ccc(Oc5ccc6[nH]c(-c7ccc(N)cc7)nc6c5)cc4)ccc3[nH]2)cc1", "0.431 µM"],
  ["CN(C)S(=O)(=O)c1cc(-c2ccc3nccc(-c4cccc(S(N)(=O)=O)c4)c3c2)cnc1N", "0.509 µM"],
  ["CCOc1cc2c(cc1OCC)C(c1cc(Cl)ccc1O)NCC2 (stereo not shown)", "0.843 µM"],
  ["COc1cc2cc(C(=O)Nc3ccccc3)c(N)nc2cc1OC", "0.215 µM"],
  ["CCCOCc1cc(CN2CCN(c3cccc(Cl)c3)CC2)c(O)c2ncccc12", "1.59 µM"],
  ["Cl.c1ccc2c(NCCCCCCNc3c4c(nc5ccccc35)CCCC4)c3c(nc2c1)CCCC3", "0.241 µM"]
]}

====

Measured Liver Stage / Hepatocyte Toxicity by item
Test system: HepG2
Test: Hepatocyte toxicity
Format: cell-based, human
Details: toxicity fold shift for the liver stage (hepatocyte toxicity vs liver stage EC50)

{"columns": ["compound", "study_target", "Liver Stage / Hepatocyte Toxicity"],
 "data": [
  ["CCCCCCCN(Cc1ccc(OC(C)(C)C(=O)OCC)cc1)C(=O)Nc1ccc(Cl)cc1OCC", "HepG2", "> 18"],
  ["COc1cc(-c2nc(-c3ccccc3)c(-c3ccccc3)[nH]2)cc(OC)c1O", "HepG2", "> 1"],
  ["COc1ccccc1CNC(=O)CCn1c(=O)[nH]c2ccsc2c1=O", "HepG2", "> 15"],
  ["COc1ccc(NC(=O)N2CCCCN3[C@H](CN)[C@H](c4ccc(C#Cc5ccccc5)cc4)[C@@H]3C2)cc1", "HepG2", "> 605"]
]}

====

Measured EC50 by item
Tested on: GNF156R (PfCARL L830V, S1076I and M81I, parent Dd2)
Assay: Cross-resistance EC50 assay, GNF156R
Type: cell-based
Conditions: Plasmodium falciparum, SYBR green 72 hour assay, asynchronized parasites, 96-well or 1536-well format

{"columns": ["molecule", "EC50, µM"],
 "data": [
  ["Nc1ccc(-c2nc3cc(Cc4ccc5[nH]c(-c6ccc(N)cc6)nc5c4)ccc3[nH]2)cc1 [MMV665943]", 0.399],
  ["COc1ccc(N2CCN(C(CNC(=O)C3CCCCC3)c3ccc4c(c3)OCO4)CC2)cc1 (stereo not drawn) [MMV019662]", 0.405],
  ["COCCNCC(O)Cn1c2ccc(Cl)cc2c2cc(Cl)ccc21 (stereo not drawn) [MMV019017]", 0.336],
  ["OC(CNC1CCCCC1)Cn1c2ccccc2c2ccccc21 (stereo not drawn) [MMV009063]", 0.095],
  ["COc1cc(C(=O)ON=C(N)Cc2cccc3ccccc23)cc(OC)c1OC [MMV666687]", 0.611],
  ["Nc1ccc(-c2nc3cc(Oc4ccc(Oc5ccc6[nH]c(-c7ccc(N)cc7)nc6c5)cc4)ccc3[nH]2)cc1 [MMV011895]", 0.126],
  ["Cc1nc2ccc3ccc(CNc4ccc(C(=O)CC(CCC(=O)O)C(=O)O)cc4)cc3c2c(=O)[nH]1.Cl (stereo not drawn) [MMV027634]", 0.229],
  ["COc1ccccc1CNC(=O)CCn1c(=O)[nH]c2ccsc2c1=O [MMV019066]", 0.008],
  ["Cc1ccc(Cn2c(N3CCC(C(=O)NCc4cccs4)CC3)nc3ccccc32)cc1 [MMV007564]", 1.62]
]}
